Data credit: patent US20170101466A1

study-target: T1, soluble cynomolgus BLyS (cynomolgus, UniProt A0A2K5V2X4 134-285)
T1 construct: Soluble form; also called cyBLyS; Soluble cyBLyS
protocol: ELISA, soluble cyBLyS
pIC50: −log10 of the molar value.
endpoint-label: pIC50

binder="8A12 IgG expressed in HEK293 cells (antibody, V domains shown, IgG from HEK293-FreeStyle cells) VH: QVQLVQSGGGLVQPGGSLRLSCAASGFTFSSYAMSWVRQAPGKGLEWVSAISGSGGSTYYADSVKGRFTISRDNSKNTLYLQMNSLRAEDTAVYYCAREGQGYDILTGYYTRGYYFDYWGQGTLVTVSS VL: QSALTQPASVSGSPGQSITISCTGTSSDVGGYNYVSWYQQLPGKAPKLMIYEVSKRPSGVPDRFSGSKSGNTASLTISGLQAEDEADYYCSSYAGSSSWVFGGGTKLTVLG" observed_measurement=9.49
